- Measurement description: TOX21_p53_BLA_p4_viability: Viability Assessment in the Tox21 HCT-116 p53 Agonism Beta-lactamase Assay, Phase 4 (AID 2283597);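 also: hits lower the luminescence signal meaning cytotoxicity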
Results filed as inconclusive are left out. The source made the active and inactive calls. The calls were made as follows: active = hit-call score of the fitted dose curve at least 0.9, where 1 is the maximum; inconclusive = response in the unintended direction; inactive = score below 0.9.
Hi there, use one of these labels in your reply, thanks! active, inactive

Input line: For "O=C(O)Cc1ccc(Cl)cc1Cl" , which call appears in the assay record?
Output line: inactive

Input line: What did the test return for "CC(C)(C)CC(C)(C)c1cc(Cc2cc(C(C)(C)CC(C)(C)C)cc(-n3nc4ccccc4n3)c2O)c(O)c(-n2nc3ccccc3n2)c1" ?
Output line: inactive

Input line: Field: outcome | Entry: "CN(C)c1cc(NC(=O)CNC(C)(C)C)c(O)c2c1C[C@H]1C[C@H]3[C@H](N(C)C)C(=O)C(C(N)=O)=C(O)[C@@]3(O)C(=O)C1=C2O"
Output line: inactive

Input line: Write down the call the test reported for this compound. Item: "CC(=O)O[Si](C)(OC(C)=O)OC(C)=O"
Output line: inactive

Input line: Field: outcome | Entry: "O=C(O)c1cc(Cl)cc(Cl)c1"
Output line: inactive

Input line: Called result for C=CC(=O)OCC1CC2CC1C1CCC(COC(=O)C=C)C21 (configuration not stated)
Output line: active

Input line: What classification did "CCc1cn([C@H]2C[C@H](O)[C@@H](CO)O2)c(=O)[nH]c1=O" end up with in this test?
Output line: inactive

Input line: I would be grateful if you could indicate the recorded call for "CC=C(C(=CC)c1ccc(O)cc1)c1ccc(O)cc1" .
Output line: inactive

Input line: Hi, do you know how "CC1(C)O[C@H]2CC(=O)OC[C@]23[C@H]2CC[C@@]4(C)[C@H](c5ccoc5)OC(=O)[C@H]5O[C@]54[C@]2(C)C(=O)C[C@@H]13" came out in this test?
Output line: inactive

Input line: Query: recorded result category for "O=C(O)c1cc(-c2ccccc2)nc2ccccc12" in this test
Output line: inactive

Input line: I'd appreciate the recorded outcome for CN1CCN(C2Cc3ccccc3Sc3ccc(Cl)cc32)CC1 (configuration not stated) from this test.
Output line: active

Input line: Hi, sorry to bother you, what did the test record for "CCOc1ccc(Cc2nccc3cc(OCC)c(OCC)cc23)cc1OCC" ?
Output line: inactive

Input line: Short answer needed: outcome of this test for "CCCCCCCCCCCCSC#N" ?
Output line: inactive

Input line: Check the results log: what was the call for "CCn1cc(C(=O)O)c(=O)c2cc3c(cc21)OCO3" ?
Output line: inactive

Input line: In this assay, the call recorded for "CCOC(C)(C)C" was what?
Output line: inactive

Input line: Hello, I am checking results. What call was entered for CCC(C)C1N=C(C)C(C)S1 (configuration not stated) ?
Output line: inactive

Input line: So what was the verdict on "CCNC(=O)/C=C/c1cccc(Br)c1" in this test?
Output line: inactive
